TESTED ON: T1, human RXFP1 (human, UniProt Q9HBX9 1-757)
T1 sequence (looked up): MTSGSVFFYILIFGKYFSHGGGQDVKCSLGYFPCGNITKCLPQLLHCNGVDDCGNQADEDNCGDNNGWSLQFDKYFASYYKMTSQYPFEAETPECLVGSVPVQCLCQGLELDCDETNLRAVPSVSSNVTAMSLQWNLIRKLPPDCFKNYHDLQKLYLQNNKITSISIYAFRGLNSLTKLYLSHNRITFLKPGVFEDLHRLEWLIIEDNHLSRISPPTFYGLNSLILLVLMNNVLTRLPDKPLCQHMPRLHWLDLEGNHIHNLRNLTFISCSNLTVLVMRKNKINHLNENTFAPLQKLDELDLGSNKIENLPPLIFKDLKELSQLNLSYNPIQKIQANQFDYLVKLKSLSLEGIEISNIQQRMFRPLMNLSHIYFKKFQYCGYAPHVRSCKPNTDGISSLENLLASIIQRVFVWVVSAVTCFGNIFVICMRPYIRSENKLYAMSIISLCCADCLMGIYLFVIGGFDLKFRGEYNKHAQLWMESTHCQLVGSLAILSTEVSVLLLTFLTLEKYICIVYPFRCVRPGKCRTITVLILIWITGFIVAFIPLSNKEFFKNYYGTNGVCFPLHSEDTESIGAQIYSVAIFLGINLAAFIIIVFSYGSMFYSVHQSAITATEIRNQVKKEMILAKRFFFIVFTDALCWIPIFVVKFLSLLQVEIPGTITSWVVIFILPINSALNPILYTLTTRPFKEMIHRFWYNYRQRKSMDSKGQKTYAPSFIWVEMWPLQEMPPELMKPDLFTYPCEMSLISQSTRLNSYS
MEASUREMENT NOTES: cell-based or functional assay
Recorded Potency (cAMP, transient hRXFP1 in HEK293) values for a group of binders are listed next.
Numbers only here, please. The scale is nM.

- Wild-type human relaxin-2 (ligand) chain 1: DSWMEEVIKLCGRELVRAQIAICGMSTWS chain 2: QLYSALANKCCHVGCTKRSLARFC: 0.1
- SEQ ID NO: 110 (Fc fusion) DKTHTCPPCPAPEAAGGPSVFLFPPKPKDTLMISRTPEVTCVVVDVSHEDPEVKFNWYVDGVEVHNAKTKPREEQYNSTYRVVSVLTVLHQDWLNGKEYKCKVSNKALAAPIEKTISKAKGQPREPQVYTLPPSRDELTKNQVSLTCLVKGFYPSDIAVEWESNGQPENNYKTTPPVLDSDGSFFLYSKLTVDKSRWQQGNVFSCSVLHEALHSHYTQKSLSLSPGEGGSDSWQEEVIKLCGRELVRAQIAICGKSTASDAAGADAQAGARQLYSALANKCCHVGCTKQSLAQFC: 17.2
- SEQ ID NO: 313 (Fc fusion) DKTHTCPPCPAPEAAGGPSVFLFPPKPKDTLMISRTPEVTCVVVDVSHEDPEVKFNWYVDGVEVHNAKTKPREEQYNSTYRVVSVLTVLHQDWLNGKEYKCKVSNKALAAPIEKTISKAKGQPREPQVYTLPPSRDELTKNQVSLTCLVKGFYPSDIAVEWESNGQPENNYKTTPPVLDSDGSFFLYSKLTVDKSRWQQGNVFSCSVLHEALHSHYTQKSLSLSPGKGGSDSWQEEVIKLCGRELVRAQIAICGKSTGGGEGGGEGGGEGRQLYSALANKCCHVGCTKRSLAQFC: 4.2
- SEQ ID NO: 103 (Fc fusion) DKTHTCPPCPAPEAAGGPSVFLFPPKPKDTLMISRTPEVTCVVVDVSHEDPEVKFNWYVDGVEVHNAKTKPREEQYNSTYRVVSVLTVLHQDWLNGKEYKCKVSNKALAAPIEKTISKAKGQPREPQVYTLPPSRDELTKNQVSLTCLVKGFYPSDIAVEWESNGQPENNYKTTPPVLDSDGSFFLYSKLTVDKSRWQQGNVFSCSVLHEALHSHYTQKSLSLSPGEGGSDSWQEEVIKLCGRELVRAQIAICGQSTASDAAGADAQAGARQLYSALANKCCHVGCTKRSLAQFC: 12.2
- SEQ ID NO: 117 (Fc fusion) DKTHTCPPCPAPEAAGGPSVFLFPPKPKDTLMISRTPEVTCVVVDVSHEDPEVKFNWYVDGVEVHNAKTKPREEQYNSTYRVVSVLTVLHQDWLNGKEYKCKVSNKALAAPIEKTISKAKGQPREPQVYTLPPSRDELTKNQVSLTCLVKGFYPSDIAVEWESNGQPENNYKTTPPVLDSDGSFFLYSKLTVDKSRWQQGNVFSCSVLHEALHSHYTQKSLSLSPGEGGSDSWQEEVIKLCGRELVRAQIAICGQSTASDAAGADAQAGARQLYSALANKCCHVGCTKQSLAQFC: 31.2
- SEQ ID NO: 99 (Fc fusion) DKTHTCPPCPAPEAAGGPSVFLFPPKPKDTLMISRTPEVTCVVVDVSHEDPEVKFNWYVDGVEVHNAKTKPREEQYNSTYRVVSVLTVLHQDWLNGKEYKCKVSNKALAAPIEKTISKAKGQPREPQVYTLPPSRDELTKNQVSLTCLVKGFYPSDIAVEWESNGQPENNYKTTPPVLDSDGSFFLYSKLTVDKSRWQQGNVFSCSVLHEALHSHYTQKSLSLSPGEGGSDSWQEEVIKLCGRELVRAQIAICGQSTASDAAGANADAGARQLYSALANKCCHVGCTKRSLAQFC: 9.4
- SEQ ID NO: 104 (Fc fusion) DKTHTCPPCPAPEAAGGPSVFLFPPKPKDTLMISRTPEVTCVVVDVSHEDPEVKFNWYVDGVEVHNAKTKPREEQYNSTYRVVSVLTVLHQDWLNGKEYKCKVSNKALAAPIEKTISKAKGQPREPQVYTLPPSRDELTKNQVSLTCLVKGFYPSDIAVEWESNGQPENNYKTTPPVLDSDGSFFLYSKLTVDKSRWQQGNVFSCSVLHEALHSHYTQKSLSLSPGEGGSDSWQEEVIKLCGRELVRAQIAICGQSTASDAAGAQAQAGARQLYSALANKCCHVGCTKRSLAQFC: 2.8
- SEQ ID NO: 370 (Fc fusion) DKTHTCPPCPAPEAAGGPSVFLFPPKPKDTLMISRTPEVTCVVVDVSHEDPEVKFNWYVDGVEVHNAKTKPREEQYNSTYRVVSVLTVLHQDWLNGKEYKCKVSNKALAAPIEKTISKAKGQPREPQVYTLPPSRDELTKNQVSLTCLVKGFYPSDIAVEWESNGQPENNYKTTPPVLDSDGSFFLYSKLTVDKSRWQQGNVFSCSVLHEALHSHYTQKSLSLSPGKGGSDSWKEEVIKLCGRELVRAQIAICGKSTASDAAGANANAGARQLYSALANKCCHVGCTKRSLAEFC: 1.8

Proceed to the following item.
Incoming: Any idea what Potency (cAMP, transient hRXFP1 in HEK293) was measured for SEQ ID NO: 96 (Fc fusion) DKTHTCPPCPAPEAAGGPSVFLFPPKPKDTLMISRTPEVTCVVVDVSHEDPEVKFNWYVDGVEVHNAKTKPREEQYNSTYRVVSVLTVLHQDWLNGKEYKCKVSNKALAAPIEKTISKAKGQPREPQVYTLPPSRDELTKNQVSLTCLVKGFYPSDIAVEWESNGQPENNYKTTPPVLDSDGSFFLYSKLTVDKSRWQQGNVFSCSVLHEALHSHYTQKSLSLSPGEGGSDSWQEEVIKLCGRELVRAQIAICGKSTASDAAGADAQAGARQLYSALANKCCHVGCTKRSLAQFC ?
Outgoing: 9.9
